The following molecules are shown together with reported INHIBITION values.
- System: Plasmodium falciparum
- experiment-description: Screen against P. falciparum Asexual Blood Stage (ABS), at 5uM
- Type: functional, Dd2
- recorded-conditions: tested at 5 uM
The campaign covered roughly 65,000 compounds. About 2,100 (3.2%) showed an effect of 50% or more. The median lay at about -52%. Many of the other results were omitted from the sample, so strong results are more common in it than they were.
Only the number, expressed in %, is required.

CC(NC1(CNS(=O)(=O)N(C)C)CCCC1)c1ccccc1 (configuration not stated) : 78.7
O=C(c1ccc(Cl)cc1-n1cnnn1)N1CCC2(CC1)OCCO2 : -52.7
CC(C)c1cc(C(=O)N2CCCC3(CCNC3)C2)no1 (configuration not stated) : -75.8
Cc1nc(NCC2CC2)nc2c1COCC21CCNC1 (configuration not stated) : -88.5
CC(C)N1CCO[C@H]2CN(C(=O)c3ccncc3F)C[C@H]21 : -88.4

Okay, now this molecule:
Given CC(Cn1cncn1)NCc1ccc2nonc2c1 (configuration not stated) , state its recorded INHIBITION.
-92.4
